Target: VTCN1, Q7Z7D3
Sequence (Q7Z7D3 whole entry): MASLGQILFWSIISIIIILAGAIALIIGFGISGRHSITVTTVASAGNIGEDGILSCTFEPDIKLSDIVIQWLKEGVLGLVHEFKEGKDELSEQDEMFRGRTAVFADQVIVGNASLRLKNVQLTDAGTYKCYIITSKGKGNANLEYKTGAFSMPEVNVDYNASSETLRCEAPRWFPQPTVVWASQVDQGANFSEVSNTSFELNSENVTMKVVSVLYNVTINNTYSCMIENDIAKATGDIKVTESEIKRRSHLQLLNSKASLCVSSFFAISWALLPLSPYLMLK
readout-type: binding in a display sort

May I ask what binding in a display sort has been recorded for design_609_7ee6ce64-4629-41e8-bcb4-ba0da017284d_1088_dldesign_0_cycle1_af2pred (protein) NKSKEYSDAMKELVRAAKEAAAAADALGAAKGDPALAQAIKAELEKLVFEAADGDIETAKKLAEEAKKLKEAAEKALA ?
not found (inactive)

May I ask what binding in a display sort has been recorded for design_606_b60ff77f-1541-4e5f-8260-46d5e5f6b85e_1599_dldesign_0_cycle1_af2pred (protein) MPVVKAVSEYTKFVVSKMREAAAAGASEEELVGAVEEGEKYGEELGKKIGEEALEAVKDLSEMFKESARAAARARKA ?
not found (inactive)

May I ask what binding in a display sort has been recorded for design_607_777643b9-bd23-49d1-80ae-2b1434974efa_1272_dldesign_0_cycle1_af2pred (protein) EEAFKEAGEKALEYAEKVLKLAKKEPEVLEKAEKGLELLKKGIETGDKDLLVKARSYFLQVASYASPEVAEVAEKAAEYIDEAYILLS ?
not found (inactive)
